Assign max response to each entry below.
Test system: CRL-7250
Assay: Cytotoxic Profiling of Annotated Libraries Using Quantitative High-Throughput Screening (AID 1296008); note: % is set by controls: 0 for no effect and ±100 for the full control effect; nearly all actives have a fitted effect of over 60% in size
Conditions: Five cell lines viability, CellTiter-Glo ATP luminescence, 48-72 h; active compounds read low
Inconclusive results are not listed.
State the answer as a number, implicitly in %.

Query: Tell me the measured max response of CC1=C(C(=O)Nc2cc3cn[nH]c3cc2F)C(c2ccc(Cl)cc2F)N=C(c2ccnc(Cl)c2)N1 (stereo not given) , please.
Response: -26.3

Query: Tell me the measured max response of C=Cc1c(C)c2cc3nc(cc4[nH]c(cc5nc(cc1[nH]2)C(C)=C5CCC(=O)O)c(CCC(=O)OC)c4C)[C@@]1(C)C3=CC=C(C(=O)OC)[C@H]1C(=O)OC , please.
Response: 1.72

Query: Tell me the measured max response of NC[C@H]1O[C@H](O[C@H]2[C@@H](O)[C@@H](O[C@H]3O[C@H](CO)[C@@H](O)[C@H](N)[C@@H]3O)[C@H](N)C[C@@H]2N)[C@H](N)C[C@H]1O , please.
Response: -1.47

Query: Tell me the measured max response of CC(C)OC(=O)[C@H](C)N[P@](=O)(OC[C@H]1O[C@@H](n2ccc(=O)[nH]c2=O)[C@](C)(F)[C@H]1O)Oc1ccccc1 , please.
Response: -5.93

Query: Tell me the measured max response of COc1cc(C(=O)NC2CCN(C)CC2)ccc1Nc1ncc2c(n1)N(C1CCCC1)CCC(=O)N2C(C)C , please.
Response: -17.1

Query: Tell me the measured max response of Nc1nc(=O)n([C@H]2CSC(CO)O2)cc1F (stereo not given in full) , please.
Response: -8.43

Query: Tell me the measured max response of C=C(C)[C@@H]1CC[C@]2(C(=O)O)CC[C@]3(C)[C@H](CC[C@@H]4[C@@]5(C)CC[C@H](O)C(C)(C)[C@@H]5CC[C@]43C)[C@@H]12 , please.
Response: -12.6

Query: Tell me the measured max response of Nc1ccn(C2CO[C@H](CO)O2)c(=O)n1 (stereo not given in full) , please.
Response: -10.6

Query: Tell me the measured max response of CC(Oc1ccc(O)cc1)(P(=O)(O)O)P(=O)(O)O , please.
Response: 3.19

Query: Tell me the measured max response of O=c1[nH]c(=O)n([C@H]2C[C@@H](O)[C@@H](CO)O2)cc1C=CBr , please.
Response: -10.9

Query: Tell me the measured max response of COC(=O)C=CC(=O)OC , please.
Response: -5.16

Query: Tell me the measured max response of CC(N[C@H]1CCCC[C@H]1NC(=O)c1ccc(Cl)cc1)c1cccc2ccccc12 (stereo not given in full) , please.
Response: 2.81

Query: Tell me the measured max response of COc1ccc(Nc2nccc(NCCO)n2)cc1 , please.
Response: 1.05

Query: Tell me the measured max response of CCn1c(=O)c2c(nc(C=Cc3ccc(OC)c(OC)c3)n2C)n(CC)c1=O , please.
Response: -2.94

Query: Tell me the measured max response of Oc1cc(-c2nc(-c3ccccc3)[nH]c2-c2ccncc2)ccc1Cl , please.
Response: -23.8

Query: Tell me the measured max response of COc1ccnc2[nH]cc(C(=O)C(=O)N3CCN(C(=O)c4ccccc4)C[C@@H]3C)c12 , please.
Response: -9.05

Query: Tell me the measured max response of c1ccc(CNc2nc(NCc3ccccc3)c3ccccc3n2)cc1 , please.
Response: -7.33

Query: Tell me the measured max response of O=C(O)CCCCC(CCSCc1ccccc1)SCc1ccccc1 (stereo not given) , please.
Response: 0.756

Query: Tell me the measured max response of CCCCOc1ccc(C(=O)Nc2ccc(F)cc2F)cc1 , please.
Response: -1.1

Query: Tell me the measured max response of N#CC(=C(O)c1ccc(Cl)cc1Cl)c1nc2cc(Cl)ccc2c(=O)[nH]1 , please.
Response: -6.32

Query: Tell me the measured max response of CCOC(=O)C1=C(C)NC(=S)NC1c1cccc(O)c1 (stereo not given) , please.
Response: -18.5

Query: Tell me the measured max response of N#Cc1cc(NC(=O)Nc2nnc(-c3ccncc3)s2)ccc1-c1cn[nH]c1 , please.
Response: -3.75

Query: Tell me the measured max response of O=C(c1ccc(F)cc1)N1CCC[C@H](c2nc(-c3ccc(F)cc3)no2)C1 , please.
Response: 3.37

Query: Tell me the measured max response of CON=C(C(=O)N[C@@H]1C(=O)N2C(C(=O)O)=C(CSC(=O)c3ccco3)CS[C@H]12)c1csc(N)n1 , please.
Response: 4.77

Query: Tell me the measured max response of CC(=O)N[C@H]1[C@@H]([C@H](O)[C@H](O)CO)OC(C(=O)O)=C[C@@H]1N=C(N)N , please.
Response: -3

Query: Tell me the measured max response of O=C(O)C=Cc1ccc(Cn2ccnc2)cc1 , please.
Response: 3.43

Query: Tell me the measured max response of CCCCCCCN(CC)CCCC(O)c1ccc(NS(C)(=O)=O)cc1 (stereo not given) , please.
Response: 0.839

Query: Tell me the measured max response of COc1cc(C[C@@H](CO)[C@H](CO)Cc2ccc(O)c(OC)c2)ccc1O , please.
Response: -0.633

Query: Tell me the measured max response of COc1ccc(CCC(=O)c2c(O)cc(O[C@@H]3O[C@H](CO)[C@@H](O)[C@H](O)[C@@H]3O[C@@H]3O[C@@H](C)[C@H](O)[C@@H](O)[C@@H]3O)cc2O)cc1O , please.
Response: -4.09

Query: Tell me the measured max response of CCOC(=O)N1CCN([N+]([O-])=NOc2ccc([N+](=O)[O-])cc2[N+](=O)[O-])CC1 , please.
Response: -5.72

Query: Tell me the measured max response of C=CC[C@@H]1C=C(C)C[C@H](C)C[C@H](OC)[C@H]2O[C@@](O)(C(=O)C(=O)N3CCCC[C@H]3C(=O)O[C@H](C(C)=C[C@@H]3CC[C@H](O)[C@H](OC)C3)[C@@H](C)[C@@H](O)CC1=O)[C@@H](C)C[C@@H]2OC , please.
Response: -10

Query: Tell me the measured max response of Nc1cccc2c1C(=O)N(C1CCC(=O)NC1=O)C2=O (stereo not given) , please.
Response: 1.13

Query: Tell me the measured max response of C[C@H](CCC(=O)O)[C@H]1CC[C@H]2[C@@H]3[C@H](O)C[C@@H]4C[C@H](O)CC[C@]4(C)[C@@H]3CC[C@]12C , please.
Response: 2.36

Query: Tell me the measured max response of COC(=O)C1C2CC3c4[nH]c5cc(OC)ccc5c4CCN3CC2CC(OC(=O)c2cc(OC)c(OC)c(OC)c2)C1OC (stereo not given) , please.
Response: -19.7

Query: Tell me the measured max response of CC(=O)OCC(=O)[C@@]12N=C(C)O[C@H]1C[C@H]1[C@@H]3CCC4=CC(=O)C=C[C@]4(C)[C@@H]3[C@@H](O)C[C@@]12C , please.
Response: 0.387
